# TGT: Integrin beta-1 (Homo sapiens) + Integrin alpha-4 (Homo sapiens) (UniProt P13612+P05556)
# Sequence (P05556 whole entry, looked up): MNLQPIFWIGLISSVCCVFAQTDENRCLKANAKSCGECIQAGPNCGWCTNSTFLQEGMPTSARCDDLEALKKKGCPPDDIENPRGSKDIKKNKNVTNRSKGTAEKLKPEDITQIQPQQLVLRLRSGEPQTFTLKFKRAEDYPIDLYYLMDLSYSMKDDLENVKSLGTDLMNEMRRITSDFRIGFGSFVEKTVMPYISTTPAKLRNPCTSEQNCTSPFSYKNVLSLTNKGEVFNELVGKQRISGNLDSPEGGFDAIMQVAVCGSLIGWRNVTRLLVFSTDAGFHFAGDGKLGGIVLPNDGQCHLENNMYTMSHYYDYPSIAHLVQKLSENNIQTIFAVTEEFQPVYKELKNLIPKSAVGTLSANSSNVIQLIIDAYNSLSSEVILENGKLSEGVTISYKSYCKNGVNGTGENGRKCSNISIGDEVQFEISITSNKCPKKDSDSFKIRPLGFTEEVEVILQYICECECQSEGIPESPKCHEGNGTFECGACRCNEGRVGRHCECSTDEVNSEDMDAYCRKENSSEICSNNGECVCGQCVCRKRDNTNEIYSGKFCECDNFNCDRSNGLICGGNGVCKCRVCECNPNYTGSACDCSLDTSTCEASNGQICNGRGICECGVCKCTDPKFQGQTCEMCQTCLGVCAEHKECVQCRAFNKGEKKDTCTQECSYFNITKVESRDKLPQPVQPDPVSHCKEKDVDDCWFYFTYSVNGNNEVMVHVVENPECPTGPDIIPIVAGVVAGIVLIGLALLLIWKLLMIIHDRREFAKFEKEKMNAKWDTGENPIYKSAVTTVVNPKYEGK
# Sequence (P13612 whole entry, looked up): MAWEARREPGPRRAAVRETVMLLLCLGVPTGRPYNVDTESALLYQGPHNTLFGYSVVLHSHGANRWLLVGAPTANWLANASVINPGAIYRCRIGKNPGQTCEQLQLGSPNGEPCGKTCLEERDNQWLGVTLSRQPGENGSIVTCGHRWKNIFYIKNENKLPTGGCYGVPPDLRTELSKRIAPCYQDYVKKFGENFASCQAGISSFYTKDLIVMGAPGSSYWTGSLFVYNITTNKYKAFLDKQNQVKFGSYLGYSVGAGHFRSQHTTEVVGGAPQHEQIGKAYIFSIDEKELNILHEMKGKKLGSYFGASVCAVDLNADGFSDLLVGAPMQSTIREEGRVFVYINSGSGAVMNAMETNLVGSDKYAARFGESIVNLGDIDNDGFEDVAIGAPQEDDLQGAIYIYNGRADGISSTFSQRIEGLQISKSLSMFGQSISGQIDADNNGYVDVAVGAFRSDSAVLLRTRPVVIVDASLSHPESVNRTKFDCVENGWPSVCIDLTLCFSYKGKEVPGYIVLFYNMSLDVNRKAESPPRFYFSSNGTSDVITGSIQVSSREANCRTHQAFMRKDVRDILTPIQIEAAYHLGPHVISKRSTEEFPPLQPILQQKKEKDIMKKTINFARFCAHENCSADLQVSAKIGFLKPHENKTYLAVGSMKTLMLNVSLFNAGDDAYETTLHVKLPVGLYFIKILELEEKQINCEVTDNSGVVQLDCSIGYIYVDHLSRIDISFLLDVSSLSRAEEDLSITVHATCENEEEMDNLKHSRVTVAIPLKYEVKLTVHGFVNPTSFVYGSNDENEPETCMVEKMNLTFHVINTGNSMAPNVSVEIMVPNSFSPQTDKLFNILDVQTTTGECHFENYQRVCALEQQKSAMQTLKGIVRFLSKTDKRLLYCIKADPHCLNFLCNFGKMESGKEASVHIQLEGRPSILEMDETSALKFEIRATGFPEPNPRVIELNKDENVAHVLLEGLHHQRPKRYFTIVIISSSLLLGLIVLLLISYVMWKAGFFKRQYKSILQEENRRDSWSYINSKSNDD
# PROCEDURE TEXT: alpha4beta1 integrin LIBS antibody binding reduction – U937 cells, HUTS-21 mAb, flow cytometry, validation set, VLA-4 allosteric modulator project, pilot screen (AID 2674);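 further: antibody binding induced by the VLA-4 ligand LDV present at three times its Kd; 0% = LDV ligand with antibody and no compound and 100% = antibody without LDV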
# MEASUREMENT CONDITIONS: HUTS-21 LIBS mAb binding, at 6.7 µM, active compounds read high, binding induced by LDV ligand
Give measured inhibition for each item. Keep answers brief.
Write down the numeric answer in % and omit the unit.

Give its inhibition value. Item: CC(=O)[C@@]1(O)CC[C@H]2[C@@H]3CCC4=CC(=O)CC[C@]4(C)[C@H]3[C@@H](O)C[C@@]21C 12.8

Give its inhibition value. Item: Cn1c(Oc2ccc3c(c2)OCO3)nc2c1c(=O)n(Cc1ccccc1)c(=O)n2C -5.38

Give its inhibition value. Item: CCCCOc1ccc(C(=O)CCN2CCCCC2)cc1 -9.13

Give its inhibition value. Item: CCCCC(=O)O[C@H]1CC[C@H]2[C@@H]3CCc4cc(O)ccc4[C@H]3CC[C@]12C 29.5

Give its inhibition value. Item: COc1ccc(-c2noc(-c3ccccc3-c3ccccc3)n2)cc1 -15.8
